Attribution: ChEMBL document CHEMBL1961873

Test system: Platelet-derived growth factor receptor alpha (Homo sapiens), P16234 [V561D]
Sequence (P16234 whole entry V561D): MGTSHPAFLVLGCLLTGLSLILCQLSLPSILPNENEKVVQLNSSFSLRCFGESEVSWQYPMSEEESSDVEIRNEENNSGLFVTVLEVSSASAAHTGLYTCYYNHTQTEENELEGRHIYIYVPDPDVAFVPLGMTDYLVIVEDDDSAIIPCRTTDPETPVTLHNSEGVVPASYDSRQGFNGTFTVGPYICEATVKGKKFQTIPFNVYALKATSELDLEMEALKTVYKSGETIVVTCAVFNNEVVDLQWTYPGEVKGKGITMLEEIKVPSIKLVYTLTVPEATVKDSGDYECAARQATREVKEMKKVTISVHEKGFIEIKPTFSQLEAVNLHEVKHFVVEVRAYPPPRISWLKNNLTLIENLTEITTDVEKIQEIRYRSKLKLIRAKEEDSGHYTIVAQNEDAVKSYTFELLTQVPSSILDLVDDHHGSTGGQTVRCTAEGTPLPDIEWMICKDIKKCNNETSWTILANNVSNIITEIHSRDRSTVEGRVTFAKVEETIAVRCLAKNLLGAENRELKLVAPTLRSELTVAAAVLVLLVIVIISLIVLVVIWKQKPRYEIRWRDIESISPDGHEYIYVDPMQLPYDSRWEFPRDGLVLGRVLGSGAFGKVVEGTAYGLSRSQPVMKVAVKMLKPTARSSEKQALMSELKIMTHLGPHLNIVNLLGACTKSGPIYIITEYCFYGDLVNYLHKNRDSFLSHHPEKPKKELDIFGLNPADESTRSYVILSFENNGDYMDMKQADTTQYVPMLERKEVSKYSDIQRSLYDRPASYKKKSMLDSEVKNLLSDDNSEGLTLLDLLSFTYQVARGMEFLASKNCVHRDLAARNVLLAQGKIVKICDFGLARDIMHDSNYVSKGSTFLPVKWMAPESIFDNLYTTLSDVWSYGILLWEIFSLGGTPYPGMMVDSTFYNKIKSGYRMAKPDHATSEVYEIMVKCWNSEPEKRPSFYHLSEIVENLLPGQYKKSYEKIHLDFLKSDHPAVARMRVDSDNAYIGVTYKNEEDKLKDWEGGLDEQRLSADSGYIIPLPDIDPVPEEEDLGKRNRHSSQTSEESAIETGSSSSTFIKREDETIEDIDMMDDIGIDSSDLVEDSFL
measurement.setup: at 0.1 µM
// map inhibition to label using 0 = under 3%, 1 = from 3% up to 7%, 2 = 7% and over

INPUT: Band for CN(c1ccc(NC(=O)Nc2ccc(OC(F)(F)F)cc2)cc1)c1ccnc(Nc2cccc(S(N)(=O)=O)c2)n1 ?
OUTPUT: 2

INPUT: Quick check: band for COc1cc2ncn(-c3cc(OCc4ccccc4S(C)(=O)=O)c(C#N)s3)c2cc1OC
OUTPUT: 2

INPUT: Which category does the recorded inhibition put CN(C)CCCn1c(-c2nonc2N)nc2cnccc21 in?
OUTPUT: 0

INPUT: Which inhibition band matches CS(=O)(=O)Nc1cccc(-c2ccc3c(NC(=O)C4CC4)n[nH]c3c2)c1 ?
OUTPUT: 0

INPUT: For this compound, which bin applies? NS(=O)(=O)c1ccc(-c2cc3ccncc3cc2OCc2ccccc2)cc1
OUTPUT: 1

INPUT: Which class does COc1cc2ncnc(Nc3ccc4c(cnn4Cc4ccccc4)c3)c2cc1OC fall in?
OUTPUT: 1

INPUT: Bin? NS(=O)(=O)c1ccc(N/N=C2\C(=O)Nc3ccc(Cl)cc32)cc1
OUTPUT: 2

INPUT: Exam item: assign NC(=O)c1cccc(Nc2nccc(Nc3cccc(F)c3)n2)c1 to the correct category.
OUTPUT: 1

INPUT: State the band of N#Cc1c(NC(=O)c2ccccc2F)sc2c1CCCC2
OUTPUT: 0

---

target: Serine/threonine-protein kinase TBK1 (Homo sapiens) (UniProt Q9UHD2);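 further: values are mean inhibition of TBK1, screened as part of the GSK published kinase inhibitor set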
Sequence (Q9UHD2 whole entry): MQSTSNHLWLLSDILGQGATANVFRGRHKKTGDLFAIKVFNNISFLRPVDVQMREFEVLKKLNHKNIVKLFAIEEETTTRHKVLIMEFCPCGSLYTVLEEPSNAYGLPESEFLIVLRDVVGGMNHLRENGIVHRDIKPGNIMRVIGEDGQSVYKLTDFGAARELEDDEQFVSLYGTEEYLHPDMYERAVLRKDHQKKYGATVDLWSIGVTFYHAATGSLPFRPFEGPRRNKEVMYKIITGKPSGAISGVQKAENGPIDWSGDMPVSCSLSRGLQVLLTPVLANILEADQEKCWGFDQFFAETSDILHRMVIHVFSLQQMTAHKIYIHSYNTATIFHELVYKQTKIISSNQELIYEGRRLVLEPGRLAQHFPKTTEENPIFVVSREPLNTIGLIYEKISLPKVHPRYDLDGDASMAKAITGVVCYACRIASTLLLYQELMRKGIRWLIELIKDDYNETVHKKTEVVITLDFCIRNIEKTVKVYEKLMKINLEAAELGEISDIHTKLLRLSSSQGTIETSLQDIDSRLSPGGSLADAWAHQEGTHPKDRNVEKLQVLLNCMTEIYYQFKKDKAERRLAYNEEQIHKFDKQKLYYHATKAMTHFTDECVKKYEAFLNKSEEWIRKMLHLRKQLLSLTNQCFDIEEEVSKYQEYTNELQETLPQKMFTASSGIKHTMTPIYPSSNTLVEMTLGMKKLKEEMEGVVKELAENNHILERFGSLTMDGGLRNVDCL
measurement.setup: at 1 µM
readout: inhibition (%)
Write it as a number; the unit % goes unstated.

INPUT: Form field: reported inhibition of NS(=O)(=O)c1ccc(N/N=C2\C(=O)Nc3ccc(Cl)cc32)cc1
OUTPUT: 9.93

INPUT: Given the entry CC(C)c1ccc2c(c1)NC(=O)/C2=N/Nc1ccc(S(N)(=O)=O)cc1 , report its measured inhibition.
OUTPUT: -0.26

INPUT: For NS(=O)(=O)c1cccc(Nc2cc(-c3ccc(F)cc3)n[nH]2)c1 , what is its reported inhibition?
OUTPUT: 15.2

INPUT: Fill in the blank: the reported inhibition of CCOc1nccc2c1nc(-c1nonc1N)n2CC is ____.
OUTPUT: 6.01

INPUT: What value of inhibition has been reported for the following compound? Cc1cc(O)cc(C)c1/C=C/c1cncc(C(=O)N(C)C)c1
OUTPUT: 4.11

INPUT: Quick check: inhibition of NS(=O)(=O)c1ccc(-c2cc3ccncc3cc2OCc2ccccc2)cc1 ?
OUTPUT: 2.74

INPUT: If you can, please state the reported inhibition value of O=S(=O)(CCOCc1ccc(-c2ccc3ncnc(Nc4ccc(OCc5cccc(F)c5)c(Cl)c4)c3c2)o1)c1ccccc1 .
OUTPUT: 2.8

INPUT: Suppose we examine the compound COC(=O)Nc1nc2cc(Oc3ccc(NC(=O)Nc4cccc(Br)c4)cc3)ccc2[nH]1 ; what inhibition value has been reported?
OUTPUT: 3.82

INPUT: # query: inhibition of entry O=C(Nc1ccc(Oc2ccc3[nH]c(NC(=O)c4ccco4)nc3c2)cc1)Nc1cc(C(F)(F)F)ccc1F
OUTPUT: 0.97

INPUT: Requested field: inhibition. Item: CN(c1ccc(NC(=O)Nc2ccc(OC(F)(F)F)cc2)cc1)c1ccnc(Nc2cccc(S(N)(=O)=O)c2)n1
OUTPUT: 9.01

---

target: Tyrosine-protein kinase CSK (Homo sapiens) (UniProt P41240);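 further: each value is an averaged inhibition reading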
Sequence (P41240 2-450 limits assumed): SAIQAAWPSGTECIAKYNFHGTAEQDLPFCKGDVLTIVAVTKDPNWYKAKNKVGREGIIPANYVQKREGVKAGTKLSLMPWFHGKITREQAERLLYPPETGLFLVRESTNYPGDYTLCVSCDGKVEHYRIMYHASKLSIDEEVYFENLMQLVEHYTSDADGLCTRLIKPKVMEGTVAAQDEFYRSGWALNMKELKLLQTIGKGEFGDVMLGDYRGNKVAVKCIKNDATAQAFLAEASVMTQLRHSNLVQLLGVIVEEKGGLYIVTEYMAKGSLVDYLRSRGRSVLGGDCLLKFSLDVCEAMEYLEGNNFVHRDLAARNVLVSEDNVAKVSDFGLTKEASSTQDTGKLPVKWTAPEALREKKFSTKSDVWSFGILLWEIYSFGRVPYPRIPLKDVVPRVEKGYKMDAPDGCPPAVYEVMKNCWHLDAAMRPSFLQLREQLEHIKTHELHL
measurement.setup: at 1 µM
readout: inhibition (%)
Only the number, expressed in %, is required.

INPUT: Can you look up the measured inhibition of COc1cc2ncn(-c3cc(OCc4ccccc4S(C)(=O)=O)c(C#N)s3)c2cc1OC for me?
OUTPUT: 4.26

INPUT: Request the reported inhibition associated with C[C@@H](Oc1cc(-n2cnc3ccc(OC[C@@H](O)CO)cc32)sc1C(N)=O)c1ccccc1Cl
OUTPUT: -0.52

INPUT: Fill in: inhibition of CS(=O)(=O)Nc1cccc(-c2ccc3c(NC(=O)C4CC4)n[nH]c3c2)c1 is ___
OUTPUT: -2.39

INPUT: # input compound: COc1cc(Nc2nccc(-c3cnn4ncccc34)n2)cc(OC)c1 ; wanted: its inhibition
OUTPUT: 12.1

INPUT: Reported inhibition, compound Cc1ccc2c(-c3ccnc(Nc4cccc(C(F)(F)F)c4)n3)c(-c3ccccc3)nn2n1 : ____
OUTPUT: 11.4

INPUT: Look at this compound and give its reported inhibition. Oc1cccc(-c2nc(-c3ccccc3)[nH]c2-c2ccncc2)c1
OUTPUT: 16.5

INPUT: What inhibition value was documented for this compound, N#Cc1c(NC(=O)c2ccccc2F)sc2c1CCCC2 ?
OUTPUT: -5.02

INPUT: Return reported inhibition; argument: COc1cccc(-n2nc(C)c3c(N/N=C(\C)c4ccncc4)ncnc32)c1
OUTPUT: 0.42

INPUT: Returns the measured inhibition for the input compound. Input: [O-][S+]1CCN(Cc2ccc(-c3ccc4ncnc(Nc5ccc(OCc6ccccc6)c(Cl)c5)c4c3)o2)CC1
OUTPUT: 1.54

INPUT: May I ask what inhibition has been recorded for COc1ccc2ncnc(Nc3ccc(OCc4ccccc4)cc3)c2c1 ?
OUTPUT: 8.35

---

target: Tyrosine-protein kinase Blk (Homo sapiens) (UniProt P51451);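 further: reported value is the mean percent inhibition of BLK kinase activity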
Sequence (P51451 2-505 limits assumed): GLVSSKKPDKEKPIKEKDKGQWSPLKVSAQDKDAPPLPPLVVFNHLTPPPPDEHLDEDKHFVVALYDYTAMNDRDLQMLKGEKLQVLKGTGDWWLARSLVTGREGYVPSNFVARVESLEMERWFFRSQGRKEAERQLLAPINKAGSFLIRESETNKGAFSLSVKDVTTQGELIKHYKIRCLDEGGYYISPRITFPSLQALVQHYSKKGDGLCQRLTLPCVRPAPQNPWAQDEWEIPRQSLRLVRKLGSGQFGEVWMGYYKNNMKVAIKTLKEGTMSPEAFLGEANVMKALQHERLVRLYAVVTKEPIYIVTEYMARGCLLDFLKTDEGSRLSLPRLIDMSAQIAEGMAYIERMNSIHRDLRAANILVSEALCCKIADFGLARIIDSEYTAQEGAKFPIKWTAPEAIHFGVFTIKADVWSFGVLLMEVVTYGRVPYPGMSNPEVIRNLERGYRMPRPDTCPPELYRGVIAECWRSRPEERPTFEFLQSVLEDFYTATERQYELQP
measurement.setup: at 0.1 µM
Can you tell me inhibition for the items I'm about to list?
Write the number in % without appending the unit.

INPUT: # lookup: inhibition of Nc1nccc(C#Cc2cncnc2Nc2ccc(OCc3cccc(F)c3)c(Cl)c2)n1
OUTPUT: 3.54

INPUT: Which inhibition is reported for this compound? CN(c1ccc(NC(=O)Nc2ccc(OC(F)(F)F)cc2)cc1)c1ccnc(Nc2cccc(S(N)(=O)=O)c2)n1
OUTPUT: 29.4

INPUT: Looking for the measured inhibition of OCc1ccc(-c2nc(-c3ccccn3)c(-c3ccc4c(c3)OCO4)[nH]2)cc1 , can you help?
OUTPUT: 3.13

INPUT: Record request: inhibition value, item Oc1cccc(-c2nc(-c3ccccc3)[nH]c2-c2ccncc2)c1
OUTPUT: 2.99

INPUT: Recorded inhibition of NS(=O)(=O)c1ccc(Nc2cc(-c3cccc(O)c3)n[nH]2)cc1 , please.
OUTPUT: 3.31

INPUT: Can you look up the measured inhibition of CCOc1nccc2c1nc(-c1nonc1N)n2CC for me?
OUTPUT: 3.42

INPUT: If you can, please state the reported inhibition value of NS(=O)(=O)c1ccc(-c2cc3ccncc3cc2OCc2ccccc2)cc1 .
OUTPUT: 2.2

INPUT: // returns reported inhibition for input CCS(=O)(=O)c1ccc(OC)c(Nc2nccc(N(C)c3ccc4c(C)n[nH]c4c3)n2)c1
OUTPUT: 15.4

INPUT: Need inhibition of NS(=O)(=O)c1ccc(N/N=C2\C(=O)Nc3ccc(Cl)cc32)cc1 , thanks.
OUTPUT: 2.51

INPUT: Can you share its inhibition? I mean this compound: CCS(=O)(=O)c1ccc(OC)c(Nc2ncc(-c3cccc(OC)c3)o2)c1
OUTPUT: 10.4

INPUT: # get_value(readout='inhibition', item= O=S(=O)(CCOCc1ccc(-c2ccc3ncnc(Nc4ccc(OCc5cccc(F)c5)c(Cl)c4)c3c2)o1)c1ccccc1 )
OUTPUT: -1.07

INPUT: Record request: inhibition value, item FC(F)(F)c1ccc(-c2nn3ncccc3c2-c2ccnc(Nc3ccc4c(c3)OCCO4)n2)cc1
OUTPUT: 3.74

INPUT: Reported inhibition, compound COC(=O)c1ccc2c(c1)C(=Cc1cc(Br)c(O)c(Br)c1)C(=O)N2 : ____
OUTPUT: 3.19

INPUT: Could you share which inhibition value was measured for NS(=O)(=O)c1ccc(NC=C2C(=O)Nc3ccc4ncsc4c32)cc1 ?
OUTPUT: 8.34

INPUT: Could you tell me which inhibition is on file for NC(=O)c1sc(-n2cnc3ccccc32)cc1OCc1ccccc1Br ?
OUTPUT: 2.16

INPUT: Entry Cc1ccc2c(-c3ccnc(Nc4cccc(C(F)(F)F)c4)n3)c(-c3ccccc3)nn2n1 has what inhibition?
OUTPUT: 12.4

INPUT: Quick one: inhibition of Cc1cc(Cl)cc2c1NC(=O)C2=NNc1ccc(S(N)(=O)=O)cc1 ?
OUTPUT: 1.98

INPUT: Given the entry CN(C)C(=O)O[C@@H]1CN[C@@H](C#Cc2cc3ncnc(Nc4ccc(OCc5cccc(F)c5)c(Cl)c4)c3s2)C1 , report its measured inhibition.
OUTPUT: 2.22

INPUT: Suppose we examine the compound CN(C)C(=O)O[C@H]1CN[C@H](C#Cc2cc3ncnc(Nc4ccc(OCc5cccc(F)c5)c(Cl)c4)c3s2)C1 ; what inhibition value has been reported?
OUTPUT: 2.47

INPUT: If you can, please state the reported inhibition value of c1ccc(Cc2nc3ccc(Nc4ncnc5ccccc45)cc3[nH]2)cc1 .
OUTPUT: 2.78

---

Please respond with reported inhibition for every item in the list.
target: Serine/threonine-protein kinase Chk1 (Homo sapiens);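 further: mean inhibition of CHEK1, part of the GSK PKIS profiling set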
measurement.setup: at 1 µM
// note: answer is a bare numeric in %

INPUT: Requested read-out: inhibition. Entry: FC(F)(F)c1ccc(-c2nn3ncccc3c2-c2ccnc(Nc3ccc4c(c3)OCCO4)n2)cc1
OUTPUT: 1.68

INPUT: inhibition for CN(C)C(=O)O[C@H]1CN[C@H](C#Cc2cc3ncnc(Nc4ccc(OCc5cccc(F)c5)c(Cl)c4)c3s2)C1 ?
OUTPUT: 2.73

INPUT: Look up inhibition: CN(c1ccc(NC(=O)Nc2ccc(OC(F)(F)F)cc2)cc1)c1ccnc(Nc2cccc(S(N)(=O)=O)c2)n1
OUTPUT: -0.01

INPUT: Entry Cc1ccc2c(-c3ccnc(Nc4cccc(C(F)(F)F)c4)n3)c(-c3ccccc3)nn2n1 : reported inhibition = ?
OUTPUT: -9.83

INPUT: What inhibition value was documented for this molecule, O=S(=O)(CCOCc1ccc(-c2ccc3ncnc(Nc4ccc(OCc5cccc(F)c5)c(Cl)c4)c3c2)o1)c1ccccc1 ?
OUTPUT: 2.55

INPUT: inhibition lookup needed for CCOc1nccc2c1nc(-c1nonc1N)n2CC , thanks.
OUTPUT: 5.94

INPUT: # inhibition lookup, item NS(=O)(=O)c1ccc(Nc2cc(-c3cccc(O)c3)n[nH]2)cc1
OUTPUT: 8.68

INPUT: Given the molecule COc1cc2ncnc(Nc3ccc4c(cnn4Cc4ccccc4)c3)c2cc1OC , what is its reported inhibition?
OUTPUT: 14.1

INPUT: Quick check: inhibition of Cc1ccc(Nc2ccnc(Nc3cccc(C(N)=O)c3)n2)cc1O ?
OUTPUT: 2.08

INPUT: Fill in: inhibition of [O-][S+]1CCN(Cc2ccc(-c3ccc4ncnc(Nc5ccc(OCc6ccccc6)c(Cl)c5)c4c3)o2)CC1 is ___
OUTPUT: -0.08

INPUT: Dear colleague, I am looking for the recorded inhibition of the following molecule: COC(=O)c1cncc(/C=C/c2c(C)cc(O)cc2C)c1
OUTPUT: 3.49

INPUT: Which inhibition value is on record for Nc1nccc(C#Cc2cncnc2Nc2ccc(OCc3cccc(F)c3)c(Cl)c2)n1 ?
OUTPUT: 7.61

INPUT: Request the reported inhibition associated with CC(C)c1ccc2c(c1)NC(=O)/C2=N/Nc1ccc(S(N)(=O)=O)cc1
OUTPUT: 0.1

INPUT: Name the recorded inhibition for NC(=O)c1sc(-n2cnc3ccccc32)cc1OCc1ccccc1Br .
OUTPUT: 13.2

INPUT: Consider the molecule COC(=O)c1ccc2c(c1)C(=Cc1cc(Br)c(O)c(Br)c1)C(=O)N2 and give its measured inhibition.
OUTPUT: 14.6

INPUT: So what's the measured inhibition for this one? CN(C)CCCn1c(-c2nonc2N)nc2cnccc21
OUTPUT: 4.94

INPUT: Please give the measured inhibition for this molecule: COc1cccc(-n2ncc3c(N/N=C/c4ccc(C)cc4)ncnc32)c1
OUTPUT: -5.11

INPUT: Endpoint output: inhibition of CCS(=O)(=O)c1ccc(OC)c(Nc2nccc(N(C)c3ccc4c(C)n[nH]c4c3)n2)c1 . Value?
OUTPUT: 2.19

INPUT: inhibition for NS(=O)(=O)c1ccc(NC=C2C(=O)Nc3ccc4ncsc4c32)cc1 ?
OUTPUT: 48

INPUT: Returns the measured inhibition for the input molecule. Input: OCc1ccc(-c2nc(-c3ccccn3)c(-c3ccc4c(c3)OCO4)[nH]2)cc1
OUTPUT: 3.17
